Readings of growth for the listed compounds
- Tested on: UO-31 renal
- Experimental Details: NCI-60 one-dose screen, 48 h (100 = growth as untreated, 0 = no growth, -100 = all killed)
- Test Conditions: 10 µM unless noted
This is part of a sample that, as a whole, favours compounds with a hit. Of some 83,000 tested, about 20% had one in any assay.
Reply with just the number (in %).

Please review the following examples before continuing.
>  <Compound>
CC1OC(O[C@H]2/C=C/C=C/C=C/C=C/C=C/C=C/C=C/[C@H](C)[C@@H](O)[C@@H](C)[C@H](C)OC(=O)CC(O)CC(O)CCC(O)C(O)CC(O)C[C@]3(O)C[C@H](O)C(C(=O)O)C(C2)O3)C(O)[C@H](N)C1O (stereo not given in full)

>  <growth, %>
-94.3

$$$$
>  <Compound>
COC(=O)[C@]12CC[C@@H](C)[C@H](C)[C@@H]1C1=CC[C@@H]3[C@@]4(C)C(C=O)=C[C@@](C)(COC(C)=O)C4=CC[C@@]3(C)[C@]1(C)CC2

>  <growth, %>
-9.5

$$$$
>  <Compound>
N#C/C(=C\c1ccc(-c2ccccc2F)o1)c1nc(-c2ccco2)cs1

>  <growth, %>
68.8

$$$$

growth for `O=C(O)CN1C(=O)CCC1=O` ?
102

Another: Cc1ccc(NS(=O)(=O)c2ccc3c(c2)C(=O)CC(c2ccc(C(=O)C(C)C)cc2)N3)cc1C (stereo not given)
51.7

Another: `O=C1/C(=C/c2ccc(F)cc2)C=C(c2ccccc2)N1CCc1ccccc1`
51

Another: `Cc1ccc(NCCN(C)C)c2c(=O)c3ccccc3sc12`
-30.5

Another: `O=C(/C=C/c1c(Cl)nc2sccn12)c1nccs1`
81.8

Another: `COc1cccc(-c2nc3sccn3c2-c2ccnc(NCCNS(=O)(=O)c3cccc(F)c3)c2)c1`
6.44

Another: `S=C(c1ccc2c(c1)OCO2)N1CCN(c2ccccc2Cl)CC1`
79.4

Another: `CCN(CC)CCn1nc2c3c(cccc3c1=O)-c1ccccc1-2`
6.26

Another: `COc1cccc(-c2nc3sccn3c2/C=C/C(=O)c2ccc(C(F)(F)F)cc2)c1`
56.3

Another: `Cc1cc(=O)oc2c1ccc1oc(C#N)c(C)c12`
94.7

Another: `O=C(Nc1ccc(-n2cc(-c3ccncc3)c(-c3ccc(Cl)c(O)c3)n2)cc1)N1CCOCC1`
75.6

Another: `CCN1CCN(c2cc(C)nc(NCc3cc(Nc4ccnc5cc(Cl)ccc45)ccc3F)n2)CC1`
69.1

Another: `O=C1/C(=C\c2cccnc2)SC(=S)N1CCc1ccc(O)cc1`
37.4

Another: `CC(C)CCC[C@@H](C)[C@H]1CC[C@H]2[C@@H](Nc3ccc(O)cc3)CCC[C@]12C`
7.74
